Across several studies, compounds have been characterized by their pIC50 on Protease (Human immunodeficiency virus 1, UniProt Q9YQ12); a selection follows.
pIC50: −log10 of the molar value.
quantity_name: pIC50

1. CC(C)CN(C[C@@H](O)[C@H](Cc1ccccc1)NC(=O)CN[C@@H]1CCOC1)S(=O)(=O)c1ccc2c(c1)OCO2
2. CC1(C)CC(=O)C2=C(C1)Nc1ccccc1N(C(=O)C(F)(F)C(=O)N1c3ccccc3NC3=C(C(=O)CC(C)(C)C3)C1c1ccccc1)C2c1ccccc1 (mixture of isomers)
3. C[C@H]1[C@H](C)CC[C@]2(C(=O)O)CC[C@]3(C)C(=CC[C@@H]4[C@@]5(C)CC[C@H](O)C(C)(C)[C@@H]5CC[C@]43C)[C@H]12
Req: Put the items above in order of decreasing pIC50. Ranked list of labels, please, in the requested order.
Resp: 1, 2, 3

* * *

Across several studies, compounds have been characterized by their IC50 on Protease (Human immunodeficiency virus 1, UniProt Q9YQ12); a selection follows.
quantity_name: IC50 (µM)

// worked examples, IC50 included
chemical_string	units_symbol	IC50
CC1(C)CCC[C@](C)([C@H]2CC[C@]3(C)[C@@H]2[C@H](O)C[C@@H]2[C@@](C)(CC(=O)O)[C@H](C(C)(C)C(=O)O)CC[C@]23C)O1	µM	11.9
CC1(C)CCC[C@](C)([C@H]2CC[C@]3(C)[C@@H]2[C@H](O)C[C@@H]2[C@@]4(C)CC[C@H](OC(=O)CC(C)(C)C(=O)O)C(C)(C)[C@@H]4[C@@H](OC(=O)CC(C)(C)C(=O)O)C[C@]23C)O1	µM	5.4
CC(C)CN(C[C@@H](O)[C@H](Cc1ccccc1)NC(=O)CN(CC(N)=O)[C@H]1CCOC1)S(=O)(=O)c1ccc([N+](=O)[O-])cc1	µM	0.0336
C[C@H](NC(=O)CCCCCNC(=O)[C@]12CCC(C)(C)C[C@H]1C1=CC[C@@H]3[C@@]4(C)CC[C@H](OC(=O)CCCC(=O)O)C(C)(C)[C@@H]4CC[C@@]3(C)[C@]1(C)CC2)C(=O)O	µM	38.8
C=C(C)[C@@H]1CC[C@]2(C(=O)N[C@@H](Cc3ccccc3)[C@H](O)CN(CC(C)C)S(=O)(=O)c3ccc(OC)cc3)CC[C@]3(C)[C@H](CC[C@@H]4[C@@]5(C)CC[C@H](O)C(C)(C)[C@@H]5CC[C@]43C)[C@@H]12	µM	0.21

A. COc1ccc(S(=O)(=O)N(CC(C)C)C[C@@H](O)COc2ccc3[nH]ccc3c2)cc1OC
B. COc1ccc(S(=O)(=O)N(CC(C)C)C[C@@H](O)[C@H](Cc2ccccc2)NC(=O)[C@]23CC[C@@H](C)[C@H](C)[C@H]2C2=CC[C@@H]4[C@@]5(C)CCC(=O)C(C)(C)[C@@H]5CC[C@@]4(C)[C@]2(C)CC3)cc1
C. C[C@H](NC(=O)CCCNC(=O)[C@]12CCC(C)(C)C[C@H]1C1=CC[C@@H]3[C@@]4(C)CC[C@H](OC(=O)c5ccccc5)C(C)(C)[C@@H]4CC[C@@]3(C)[C@]1(C)CC2)C(=O)O
D. CC1(C)CCC[C@](C)([C@H]2CC[C@]3(C)[C@@H]2[C@H](O)C[C@@H]2[C@@]4(C)C[C@](O)(C(=O)O)C(C)(C)[C@@H]4CC[C@]23C)O1
Req: List by increasing IC50. Ranked list of labels, please, in the requested order.
Resp: B, A, D, C

* * *

Across several studies, molecules have been characterized by their IC50 on Protease (Human immunodeficiency virus 1); a selection follows.

molecule	assayed_target	quantity_name	endpoint_result
CC(C)c1nc(CN(C)C(=O)N[C@@H](CCN2CCOCC2)C(=O)NC(Cc2ccccc2)CN(Cc2ccccc2)C(=O)OCc2cncs2)cs1 (stereo partly drawn)	Protease (Human immunodeficiency virus 1)	IC50	> 30 µM

Req: Item: "CC(=O)OC[C@@]1(C)C(=O)CC[C@@]2(C)[C@H]1CC=C1[C@@H]2CC[C@@]2(C)[C@H]([C@H](CCC=C(C)C)C(=O)O)CC[C@]12C" Test system: Protease (Human immunodeficiency virus 1) Read-out: IC50 Value: ?
Resp: > 195 µM

Req: Next molecule up: "C[C@H](NC(=O)CCCCCCCCCCNC(=O)[C@]12CCC(C)(C)C[C@H]1C1=CC[C@@H]3[C@@]4(C)CC[C@H](OC(=O)c5ccccc5)C(C)(C)[C@@H]4CC[C@@]3(C)[C@]1(C)CC2)C(=O)O"
Resp: > 50 µM

* * *

Across several studies, compounds have been characterized by their IC50 on Protease (Human immunodeficiency virus 1, UniProt Q9YQ12); a selection follows.

// worked examples, IC50 included
chemical_string	IC50
O=C(N[C@H](CC[C@H](Cc1ccccc1)NC(=O)[C@H](CO)NC(=O)N(Cc1cncs1)C1CC1)Cc1ccccc1)OCc1cncs1	19.3 µM
CC(C)c1nc(CN(C)C(=O)N[C@H](C(=O)N(CCCN(Cc2ccccc2)C(=O)OCc2cncs2)Cc2ccccc2)C(C)C)cs1	21 µM
CCOc1cccc2cc(CNCc3cn([C@H]4C[C@H](n5cc(C)c(=O)[nH]c5=O)O[C@@H]4CO)nn3)c(=O)oc12	23.3 µM
COC(=O)N[C@H](C(=O)N[C@@H](Cc1ccccc1)[C@H](CN(Cc1ccc(-c2ccccn2)cc1)NC(=O)[C@@H](NC(=O)OC)C(C)(C)C)OC(=O)[C@@H](C)N)C(C)(C)C	0.004 to 1.14 µM

Req: Any idea what its IC50 is? The compound is "C[C@H](NC(=O)CCCNC(=O)[C@]12CCC(C)(C)C[C@H]1C1=CC[C@@H]3[C@@]4(C)CC[C@H](OC(=O)CCC(=O)O)C(C)(C)[C@@H]4CC[C@@]3(C)[C@]1(C)CC2)C(=O)O"
Resp: > 50 µM

Req: Next compound up: "CCCC(=O)O[C@H]1CC[C@]2(C)[C@H]3CC=C4[C@@H]5CC(C)(C)CC[C@]5(C(=O)NCCCCCCCCCCC(=O)O)CC[C@@]4(C)[C@]3(C)CC[C@H]2C1(C)C"
Resp: > 50 µM

Req: Next compound up: "CC(C)[C@H](NC(=O)CCCCCCCCCCNC(=O)[C@]12CCC(C)(C)C[C@H]1C1=CC[C@@H]3[C@@]4(C)CC[C@H](OC(=O)c5ccccc5)C(C)(C)[C@@H]4CC[C@@]3(C)[C@]1(C)CC2)C(=O)O"
Resp: > 50 µM

Req: Next compound up: "CC(=O)NCC[C@H](NC(=O)N(C)Cc1csc(C(C)C)n1)C(=O)N[C@H](CC[C@H](Cc1ccccc1)NC(=O)OCc1cncs1)Cc1ccccc1"
Resp: 2 µM

* * *

Across several studies, molecules have been characterized by their IC50 on Protease (Human immunodeficiency virus 1, UniProt Q9YQ12); a selection follows.
quantity_name: IC50 (µM)

// worked examples, IC50 included
chemical_string	assayed_target	IC50 / µM
C[C@H](NC(=O)CCCCCNC(=O)[C@]12CCC(C)(C)C[C@H]1C1=CC[C@@H]3[C@@]4(C)CC[C@H](OC(=O)CC(C)(C)CC(=O)O)C(C)(C)[C@@H]4CC[C@@]3(C)[C@]1(C)CC2)C(=O)O	Protease (Human immunodeficiency virus 1, UniProt Q9YQ12)	24.1
CC(C)c1nc(CN(C)C(=O)N[C@@H](CC(N)=O)C(=O)N[C@H](CC[C@H](Cc2ccccc2)NC(=O)OCc2cncs2)Cc2ccccc2)cs1	Protease (Human immunodeficiency virus 1, UniProt Q9YQ12)	0.143
CC(C)[C@H](NC(=O)[C@]12CCC(C)(C)C[C@@H]1C1=CC[C@@H]3[C@@]4(C)CCC(=O)C(C)(C)[C@@H]4CC[C@@]3(C)[C@]1(C)CC2)C(=O)O	Protease (Human immunodeficiency virus 1, UniProt Q9YQ12)	14.6
Cc1cccc(C)c1N(CC(=O)N[C@@H](Cc1ccccc1)[C@@H](O)CN(CC(C)C)S(=O)(=O)c1ccc(CO)cc1)CC(=O)N(C)C	Protease (Human immunodeficiency virus 1, UniProt Q9YQ12)	17.3
COc1nc(N)nc2c1ncn2CC(=O)N[C@@H](Cc1ccccc1)[C@H](O)CN(CC(C)C)S(=O)(=O)c1ccc(N)cc1	Protease (Human immunodeficiency virus 1, UniProt Q9YQ12)	0.19

A. C[C@H](NC(=O)CCCCCNC(=O)[C@]12CCC(C)(C)C[C@H]1C1=CC[C@@H]3[C@@]4(C)CC[C@H](OC(=O)CCC(=O)O)C(C)(C)[C@@H]4CC[C@@]3(C)[C@]1(C)CC2)C(=O)O
B. COC(=O)N[C@H](C(=O)Nc1ccccc1CC[C@@H]1CN[C@H](COC(=O)N[C@@H]2CCc3ccccc32)CO1)C(c1ccccc1)c1ccccc1
Req: Min IC50? A | B Please identify the chosen entry by its label.
Resp: B
(B: 0.0097 µM, A: 40.2 µM)
